Provenance of the data: patent EP4803151A2

measured target: T1, ECD of human DLL3 over-expressed on HEK293 cells (human, UniProt Q9NYJ7 27-492)
T1 construct: extracellular domain; also called HEK293-hDLL3; human DLL3 expressed on HEK293 cells
T1 sequence (looked up): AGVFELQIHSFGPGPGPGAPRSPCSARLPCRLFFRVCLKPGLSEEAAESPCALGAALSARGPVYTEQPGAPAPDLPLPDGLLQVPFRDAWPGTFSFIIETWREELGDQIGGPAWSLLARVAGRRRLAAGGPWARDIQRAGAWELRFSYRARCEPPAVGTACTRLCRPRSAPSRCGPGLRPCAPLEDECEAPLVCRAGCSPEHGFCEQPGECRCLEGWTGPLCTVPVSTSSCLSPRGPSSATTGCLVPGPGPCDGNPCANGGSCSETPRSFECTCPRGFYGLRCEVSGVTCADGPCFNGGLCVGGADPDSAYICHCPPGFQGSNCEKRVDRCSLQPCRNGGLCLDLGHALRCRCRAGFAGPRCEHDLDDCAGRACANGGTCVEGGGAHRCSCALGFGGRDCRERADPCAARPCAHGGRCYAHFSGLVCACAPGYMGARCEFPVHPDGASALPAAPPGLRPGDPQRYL
procedure details: flow cytometry on HEK293-hDLL3 cells
reported endpoint: binding result

129H2B9-hIgG1 chimeric antibody (antibody, V domains shown) VH: EVNLEESGGGLVQPGGSMKLSCVVSGFTFSNYWMSWVRQSPEKGLEWVAEIRLKSDNYATHYAESVKGKFTISRDDSKSRLYLQMNSLRPEDTGIYYCTSNRFAYWGQGTLVTVSA VL: NIVMTQSPKSVSMSVGERVTLSCKASENVGTYVYWYQQKPEQSPKMMIYGASNRYTGVPDRFTGSGSATDFTLTIRSVQAEDLADYHCGQSYSYPFTFGSGTKLEIKR; binds
310P3C5-z4 humanized antibody (antibody, human IgG1, kappa, V domains shown, HU-VH1-4 with HU-VL1-1; human IgG1) VH: QVQLVQSGAEVKKPGASVKVSCKASGYTFTDFYMNWVRQAPGQGLEWIGDANPNNGGTTHNPRFKGQATLTVDKSTSTAYMELRSLRSDDTAVYYCARGGLPGDFDYWGQGTTVTVSS VL: DIQMTQSPSSVSASVGDRVTITCKASEDIYNRLAWYQQKPGKAPKLLIYGVTSLETGVPSRFSGSGSGTDFTLTISSLQPEDFATYYCQQYWSFPWTFGGGTKVEIKR; binds
